Cited source for all entries: patent US20220395553A1

target: T1, SNAP tagged-CXC4 receptor labeled with terbium (Tag-lite CXCR4 cells, HEK293) (UniProt P61073 1-352, SNAP tag labeled with terbium fluorescent dye); experiment: HTRF competition on Tag-lite CXCR4 HEK293 cells; competitor labelled CXCL12
T1 construct: whole, on cells; Bought frozen cells (PerkinElmer-CisBio), HEK293 transiently expressing the receptor; also called terbium labeled CXCR receptor
T1 sequence (P61073 whole entry): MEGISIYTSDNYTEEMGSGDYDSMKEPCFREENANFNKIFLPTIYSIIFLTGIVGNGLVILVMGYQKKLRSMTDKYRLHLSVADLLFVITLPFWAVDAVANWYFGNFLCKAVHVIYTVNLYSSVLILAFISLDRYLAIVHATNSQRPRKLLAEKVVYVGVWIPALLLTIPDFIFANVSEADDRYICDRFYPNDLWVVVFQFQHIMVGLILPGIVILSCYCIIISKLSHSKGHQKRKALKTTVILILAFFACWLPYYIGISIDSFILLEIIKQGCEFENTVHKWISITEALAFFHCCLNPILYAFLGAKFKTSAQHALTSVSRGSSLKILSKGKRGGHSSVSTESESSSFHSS
pIC50: −log10 of the molar value. Square brackets hold non-standard residues; d marks the D form. Ends that are not written are not given here.
OBSERVED_PROPERTY: pIC50

INSERT INTO measurements (binder, value_observed) VALUES
  ('MLRRYHHSVRSSLRPYTK [SEQ ID NO: 2]', 6.43),
  ('LERYHHSVRSSLRPYT [SEQ ID NO: 18]', 7.74),
  ('[dA]ERYHHS[dA]RSSLRPYTK [SEQ ID NO: 35]', 5.20),
  ('LDRYHHS[dA]RSSLRPYTK [SEQ ID NO: 8]', 8.05),
  ('LERYHHSVRSTLRPYTK [SEQ ID NO: 74]', 8.22),
  ('LERYHHSVRSSLRPYTK [SEQ ID NO: 4]', 8.22),
  ('LERYHHSVRSSLRGYTK [SEQ ID NO: 80]', 8.22);
